system name: Retinoic acid receptor RXR-alpha (Homo sapiens)
assay notes: Effective concentration against Retinoic acid receptor RXR-alpha
pEC50: −log10 of the molar value.
# if value of pEC50 reaches 7, tag class 1; if it stays below, tag class 0

Answered cases to consult:
compound	class assignment
CC(C)=C(/C=C/C(C)=C/C(=O)O)c1cc2c(cc1C)C(C)(C)CCC2(C)C	class 0
CC(C)=C(/C=C/C(C)=C/C(=O)O)c1ccc2c(c1)C(C)(C)CCC2(C)C	class 0
CC(/C=C/C1(c2cc3c(cc2C)C(C)(C)CCC3(C)C)OCCO1)=C\C(=O)O	class 1

Prompt line: Evaluate CC1(C)CCC(C)(C)c2cc(C3(c4ccc(C(=O)O)cc4)CC3)ccc21 : pEC50 at minimum 7?
Response line: class 1

Prompt line: Evaluate CC(c1ccc(C(=O)O)cc1)c1ccc2c(c1)C(C)(C)CCC2(C)C (configuration not stated) : pEC50 at minimum 7?
Response line: class 0

Prompt line: Evaluate CC1(C)CCC(C)(C)c2cc(C(O)c3ccc(C(=O)O)cc3)ccc21 (configuration not stated) : pEC50 at minimum 7?
Response line: class 0

---

system name: Retinoic acid receptor RXR-alpha (Homo sapiens, UniProt P19793)
Sequence (P19793 whole entry): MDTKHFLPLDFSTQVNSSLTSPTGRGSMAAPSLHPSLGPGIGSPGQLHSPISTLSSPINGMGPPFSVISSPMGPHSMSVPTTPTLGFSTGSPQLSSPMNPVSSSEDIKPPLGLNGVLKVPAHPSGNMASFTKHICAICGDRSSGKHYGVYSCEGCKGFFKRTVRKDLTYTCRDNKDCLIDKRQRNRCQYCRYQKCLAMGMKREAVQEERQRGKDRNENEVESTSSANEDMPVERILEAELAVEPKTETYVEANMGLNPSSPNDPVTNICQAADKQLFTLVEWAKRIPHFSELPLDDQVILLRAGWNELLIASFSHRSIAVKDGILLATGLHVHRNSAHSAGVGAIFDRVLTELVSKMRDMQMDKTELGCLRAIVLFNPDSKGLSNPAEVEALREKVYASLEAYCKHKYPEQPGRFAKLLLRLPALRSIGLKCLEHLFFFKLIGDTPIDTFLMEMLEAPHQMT
assay notes: Effective concentration against Retinoic acid receptor RXR-alpha
EC50 values by entry
Give the value, in units of nM, as a plain number.

smi	assay result
C/C=C(\c1ccc(C(=O)O)cc1)c1ccc2c(c1)C(C)(C)CCC2(C)C	2500
CC1(C)CCC(C)(C)c2cc(Oc3ccc(C(=O)O)cc3)ccc21	2500
C=C(c1ccc(C(=O)O)s1)c1cc2c(cc1C)C(C)(C)CCC2(C)C	330

Prompt line: Quick one: give measured EC50 for Cc1cc2c(cc1C(=O)c1ccc(C(=O)O)s1)C(C)(C)CCC2(C)C
Response line: 2200

Prompt line: Quick one: give measured EC50 for CC(C)=C(c1ccc(C(=O)O)cc1)c1ccc2c(c1)C(C)(C)CCC2(C)C
Response line: 86

Prompt line: Quick one: give measured EC50 for CC1(C)CCC(C)(C)c2cc(C(C)(C)c3ccc(C(=O)O)cc3)ccc21
Response line: 3100

Prompt line: Quick one: give measured EC50 for CC1(C)CCC(C)(C)c2cc(Cc3ccc(C(=O)O)cc3)ccc21
Response line: 2500

Prompt line: Quick one: give measured EC50 for C=C(c1ccc(C(=O)O)cc1)c1ccc2c(c1)C(C)(C)CCC2(C)C
Response line: 270

Prompt line: Quick one: give measured EC50 for CC1(C)CCC(C)(C)c2cc(C3(c4ccc(C(=O)O)cc4)OCCO3)ccc21
Response line: 34

Prompt line: Quick one: give measured EC50 for CC1(C)CCC(C)(C)c2cc(C3(c4ccc(C(=O)O)cc4)SCCS3)ccc21
Response line: 170
